Measured values drawn from PubChem BioAssay (EPA / NIEHS) for this set.

- EXPERIMENT_DESCRIPTION: BSK_4H_Eotaxin3: BioMAP Diversity Plus: 4H Assay for Eotaxin 3 Biomarker Activity (AID 2283000)
- MEASUREMENT_SETUP: primary human endothelial cells (HUVEC); actives raise or lower the signal
The source made the active and inactive calls. The calls were made as follows: active = hit-call score of the fitted dose curve at least 0.9, where 1 is the maximum; inactive = score below 0.9.
// classify into active, inactive

COc1cc(C=O)cc2c1[C@H](COC(N)=O)[C@]1(OC(C)=O)ON2C[C@H]2[C@@H]1N2C(C)=O; active
Nc1ccc(N=Nc2ccccc2)cc1; inactive
Clc1ccc(Cl)c(Cl)c1; inactive
c1ccc(NNc2ccccc2)cc1; inactive
CC(C)COC(=O)c1ccccc1C(=O)OCC(C)C; inactive

// return assay outcome for ClC1=C(Cl)[C@]2(Cl)[C@H]3[C@H]([C@@H]4C=C[C@H]3C4)[C@@]1(Cl)C2(Cl)Cl
active

----------
- Read-out: Tissue Factor, F3 (gene 2152)
- EXPERIMENT_DESCRIPTION: BSK_LPS_TissueFactor: BioMAP Diversity Plus: LPS Assay for Tissue Factor Biomarker Activity (AID 2283084)
- MEASUREMENT_SETUP: primary human HUVEC with PBMC; actives raise or lower the signal
Calls of active or inactive are those of the source. The calls were made as follows: active = hit-call score of the fitted dose curve at least 0.9, where 1 is the maximum; inactive = score below 0.9.
// classify into active, inactive

The examples below pair each entry with its known result.
COC(=O)Nc1nc2ccccc2[nH]1; inactive
Cc1ccc([N+](=O)[O-])cc1; inactive
CC(C)(O)c1cnn2c(-c3ccc(F)c(-c4c(F)cccc4C#N)c3)cnc2n1; inactive
CCCCOC(=O)c1ccccc1C(=O)OCc1ccccc1; inactive
Oc1ccccc1Cl; inactive
CCCSC(=O)N(CCC)CCC; inactive
CCN(CC)N=O; inactive
[O-][Cl+]O; inactive
CCNS(=O)(=O)C(F)(F)C(F)(F)C(F)(F)C(F)(F)C(F)(F)C(F)(F)C(F)(F)C(F)(F)F; inactive
CC(O)CCO (stereo unspecified); inactive

// return assay outcome for ClC1=C(Cl)C2(Cl)C3C(Cl)C=CC3C1(Cl)C2(Cl)Cl (stereo unspecified)
active

// return assay outcome for CS(=O)(=O)NC(=O)c1cc(Oc2ccc(C(F)(F)F)cc2Cl)ccc1[N+](=O)[O-]
inactive

// return assay outcome for Clc1ccc(Cl)c(Cl)c1
inactive

// return assay outcome for CC(C)(C)C(O)(CCc1ccc(Cl)cc1)Cn1cncn1 (stereo unspecified)
inactive

// return assay outcome for Nc1ccc(Oc2ccc(N)cc2)cc1
inactive

// return assay outcome for O=C1CCCO1
inactive

// return assay outcome for O=C(Nc1ccccc1)c1ccccc1I
inactive

----------
- EXPERIMENT_DESCRIPTION: ATG_MRE_CIS: Attagene CIS-FACTORIAL HepG2 Assay for human Metal Responsive Element (MRE) (AID 2282954)
- MEASUREMENT_SETUP: HepG2 MRE cis-reporter transcription, Attagene multiplex; actives raise or lower the signal
- Method: ATG_CIS is a cell-based, multiplexed-readout assay that uses HepG2, a human liver cell line, with measurements taken at 24 hours after chemical dosing in a 24-well plate.ATG_MRE_CIS is one of 52 assay component(s) measured or calculated from the ATG_CIS assay. […] This assay endpoint, ATG_MRE_CIS, was analyzed with bidirectional fitting relative to DMSO as the negative control and baseline of activity. […]
Active and inactive are the calls of the source. How the source made its calls: active means hit-call score of the fitted dose curve at least 0.9, where 1 is the maximum; inactive means score below 0.9.
// classify into 1 (yes) (active), 0 (no) (inactive)

The examples below pair each entry with its known result.
O=P(OCCCl)(OCCCl)OCCCl; 0 (no)
CN(C)c1ccccc1; 0 (no)
CN(C)c1ccc(C(=O)c2ccc(N(C)C)cc2)cc1; 0 (no)
COC(=O)Nc1nc2ccccc2[nH]1; 0 (no)
CC(C)(OOC(C)(C)c1ccccc1)c1ccccc1; 1 (yes)

// return assay outcome for CCCCCOC(=O)c1ccccc1C(=O)OCCCCC
1 (yes)

// return assay outcome for OCCCBr
0 (no)

// return assay outcome for Nc1ccc([N+](=O)[O-])cc1
0 (no)
